Recorded growth, one value per entry.
- Tested on: HCT-116 colon
- ASSAY: NCI-60 one-dose screen, 48 h (100 = growth as untreated, 0 = no growth, -100 = all killed)
- DETAILS: 10 µM
The panel holds about 83,000 compounds, 20% with a hit somewhere; the sample as a whole holds those more often.
Numbers only here, please. The scale is %.

Example cases with answers are listed next.
[
  {
    "SMILES NOTATION": "O=C(Nc1cc(-c2ccccc2)[nH]n1)c1ccc(Cl)cc1",
    "UNIT ANNOTATION": "%",
    "growth": 72.3
  },
  {
    "SMILES NOTATION": "S=C1NCc2cncnc2N1",
    "UNIT ANNOTATION": "%",
    "growth": 99.1
  }
]

Switching to the query record.
Query :: Any idea what growth came out for O=C1C=C(O)C(=O)C=C1O on HCT-116 colon?
Result :: 105

----------
- Test system: UACC-62 melanoma
- ASSAY: NCI-60 one-dose screen, 48 h
- DETAILS: 10 µM unless noted
The panel holds about 83,000 compounds, 20% with a hit somewhere; the sample as a whole holds those more often. The source made the active and inactive calls. Rule for the calls: active = growth percent below 10; inactive = the rest.
Field 'call' accepts 1 (active), -1 (inactive)

[
  {
    "COMPOUND": "O=C(O)C(Cc1ccccc1)C(=O)O",
    "CATEGORY": -1
  },
  {
    "COMPOUND": "Cc1ccc(C)n1-c1ccsc1C(=O)NNC(=O)C(Cl)Cl",
    "CATEGORY": -1
  },
  {
    "COMPOUND": "CCCC(=O)Nc1ccc2c(c1)CN1C(=O)c3ccccc3C1=N2",
    "CATEGORY": -1
  },
  {
    "COMPOUND": "Cc1cc(=O)cc(C)n1-c1ccccc1",
    "CATEGORY": -1
  },
  {
    "COMPOUND": "c1csc(-c2cc(-c3cc(-c4cccs4)[nH]n3)n[nH]2)c1",
    "CATEGORY": -1
  }
]

Query :: Hi, sorry to bother you, what did the test record for COc1cc2cc(c1Cl)N(C)C(=O)C[C@H](OC(=O)[C@H](C)N(C)C(C)=O)[C@]1(C)O[C@H]1[C@H](C)[C@@H]1C[C@@](O)(NC(=O)O1)[C@H](OC)C=C/C=C(\C)C2 ?
Result :: 1

Query :: Okay, and C#CC(C)(O)c1ccc(Cl)cc1 (configuration not stated) ?
Result :: 1

Query :: Okay, and CC(=O)/C(Cc1ccccc1)=N/O ?
Result :: -1

Query :: Okay, and O=C(O)CCC(=O)OC(C1CO1)C(OC(=O)CCC(=O)O)C1CO1 (configuration not stated) ?
Result :: -1

Query :: Okay, and N#CSc1cc(S(N)(=O)=O)ccc1N ?
Result :: -1

----------
- System: MCF7 breast
- ASSAY: NCI-60 one-dose screen, 48 h (100 = growth as untreated, 0 = no growth, -100 = all killed)
- DETAILS: 10 µM unless noted
About 83,000 compounds went through this panel and 20% of them were active in at least one assay; those are over-represented in the sample as a whole.
Recorded growth, one value per entry.
Numbers only here, please. The scale is %.

Example cases with answers are listed next.
[
  {
    "MOLECULE": "O=C(O)C(O)c1ccccc1 (centres undefined)",
    "UNIT ANNOTATION": "%",
    "growth": 99.1
  },
  {
    "MOLECULE": "CC(=O)OCCC(C)CCC=C(C)C (centres undefined)",
    "UNIT ANNOTATION": "%",
    "growth": 101
  },
  {
    "MOLECULE": "O=C(Nc1ccccc1)OCCc1ccccc1",
    "UNIT ANNOTATION": "%",
    "growth": 93.7
  },
  {
    "MOLECULE": "CC1=CC(=O)c2ccccc2C1=O",
    "UNIT ANNOTATION": "%",
    "growth": 100
  },
  {
    "MOLECULE": "CC(=O)C1CCCCC1",
    "UNIT ANNOTATION": "%",
    "growth": 97.9
  },
  {
    "MOLECULE": "O=C(NCCNC(=O)c1ccc(Cl)cc1Cl)c1ccc(Cl)cc1Cl",
    "UNIT ANNOTATION": "%",
    "growth": 102
  },
  {
    "MOLECULE": "COC(=O)/C=C/C(=O)NC(N)=O",
    "UNIT ANNOTATION": "%",
    "growth": 94.8
  },
  {
    "MOLECULE": "S=c1sc2ccccc2n1CN1CCCCC1",
    "UNIT ANNOTATION": "%",
    "growth": 115
  }
]

Switching to the query record.
Query :: Any idea what growth came out for C=C[Si](OC(C)=O)(OC(C)=O)OC(C)=O on MCF7 breast?
Result :: 92.9
